Every entry's value here was drawn from patent US20260209325A1.

- targetEntity: T1, murine pro-myostatin (mouse, UniProt O08689 25-376, biotinylated (in the SPR assay))
- T1 construct: also called proGDF8 (mouse); mouse pro-myostatin
- procedureDetails: SPR Biacore 8K, biotin-antigen captured
propertyName: koff (s⁻¹)
One number for each entry, in s⁻¹.

Worked examples follow.
{"binder": "Ab109 (antibody, human IgG4 S228P, kappa, V domains shown, human IgG4 in the EM experiment; also called Ab109 Human IgG4) VH: EVQLVESGGGLVQPGGSLRLSCAASGFTFSSYGMSWVRQAPGKGLELVASFTGSGGTYYPDSVKGRFTISRDNAKNSLYLQMNSLRAEDTAVYYCARDLLIRFLEWSHYYGMDVWGQGTTVTVSS VL: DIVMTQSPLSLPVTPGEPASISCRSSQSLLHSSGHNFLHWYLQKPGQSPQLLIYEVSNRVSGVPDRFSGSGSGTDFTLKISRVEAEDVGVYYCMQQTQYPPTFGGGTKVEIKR", "unitTag": "s⁻¹", "koff": 0.00134}
{"binder": "Ab112 (antibody, human IgG4 S228P, kappa, V domains shown) VH: QVQLVQSGAEVKKPGASVKVSCKVSGGTFGIYAIHWVRQAPGKGLEWMGGTIPVFGTAIYAQKFQGRVTMTEDTSTDTAYMELSSLKSEDTAVYYCASLTGIAAAGTHPARGGMDVWGQGTTVTVSS VL: DIQMTQSPSSVSASVGDRVTITCRASPSISSYLAWYQQKPGKAPKLLIYAASRLQSGVPSRFSGSGSGTDFTLTISSLQPEDFANYYCQEYLSFPLTFGGGTKVEIKR", "unitTag": "s⁻¹", "koff": 0.000188}

We now examine a further binder.
Recorded result, Ab108 (antibody, human IgG4 S228P, kappa, V domains shown) VH: EVQLVESGGGLVQPGGSLRLSCAASGSAFSSYGMSWVRQAPGKGLELVASINSNGGSTYYPDSVKGRFTISRDNAKNSLYLQMNSLRAEDTAVYYCARDLLVGFLQWSHYYGMDVWGQGTTVTVSS VL: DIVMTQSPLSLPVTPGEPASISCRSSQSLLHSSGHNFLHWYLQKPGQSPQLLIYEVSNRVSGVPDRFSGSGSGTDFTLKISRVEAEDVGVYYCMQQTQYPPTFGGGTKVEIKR , koff: 0.00183
